System: Human lung cancer cell line (H292)
Test summary: Inhibition of H292 cell proliferation (CellTiter luminescent viability)
Type: cell-based
Condition: NCI-H292, Table IE2, CDK4/6 inhibitor-based, H292, 500 nM, 96 hours, read-out: Inhibition Rate at 500 nM (%)
Readout: inhibition at 0.5 µM

- Molecule: "CC(=O)c1c(C)c2cnc(Nc3ccc(N4CCNCC4)cn3)nc2n(C2CCCC2)c1=O [Palbociclib, reference compound]"
  System: "Human lung cancer cell line (H292)"
  Readout: "inhibition at 0.5 µM"
  Experimental value: "25 to 30%"
- Molecule: "CN(C)C(=O)c1cc2cnc(Nc3ccc(N4CCC(CN5CCN(C6CCN(c7ccc8c(c7)C(=O)N(N7CCC(=O)NC7=O)C8=O)CC6)CC5)CC4)cn3)nc2n1C1CCCC1 [GT-05205]"
  System: "Human lung cancer cell line (H292)"
  Readout: "inhibition at 0.5 µM"
  Experimental value: "35 to 40%"
- Molecule: "CN(C)C(=O)c1cc2cnc(Nc3ccc(N4CCC(N(C)Cc5ccc6c(c5)CN(N5CCC(=O)NC5=O)C6=O)CC4)cn3)nc2n1C1CCCC1 [GT-06487]"
  System: "Human lung cancer cell line (H292)"
  Readout: "inhibition at 0.5 µM"
  Experimental value: "40 to 60%"
- Molecule: "CN(C)C(=O)c1cc2cnc(Nc3ccc(N4CCC(CN5CCN(c6cc7c(cc6F)C(=O)N(N6CCC(=O)NC6=O)C7=O)CC5)CC4)cn3)nc2n1C1CCCC1 [GT-05199]"
  System: "Human lung cancer cell line (H292)"
  Readout: "inhibition at 0.5 µM"
  Experimental value: "35 to 40%"
- Molecule: "CN(C)C(=O)c1cc2cnc(Nc3ccc(N4CCN(CC5CCN(c6cccc7c6C(=O)N(N6CCC(=O)NC6=O)C7=O)CC5)CC4)cn3)nc2n1C1CCCC1 [GT-06338]"
  System: "Human lung cancer cell line (H292)"
  Readout: "inhibition at 0.5 µM"
  Experimental value: "40 to 60%"
- Molecule: "CN(C)C(=O)c1cc2cnc(Nc3ccc(N4CCC(CN5CCN(c6cccc7c6C(=O)N(N6CCC(=O)NC6=O)C7=O)CC5)CC4)cn3)nc2n1C1CCCC1 [GT-05202]"
  System: "Human lung cancer cell line (H292)"
  Readout: "inhibition at 0.5 µM"
  Experimental value: "35 to 40%"
- Molecule: "CN(C)C(=O)c1cc2cnc(Nc3ccc(N4CCN(Cc5ccc6c(c5)CN(N5CCC(=O)NC5=O)C6=O)CC4)cn3)nc2n1C1CCCC1 [GT-06335]"
  System: "Human lung cancer cell line (H292)"
  Readout: "inhibition at 0.5 µM"
  Experimental value: "30 to 35%"
- Molecule: "CN(C)C(=O)c1cc2cnc(Nc3ccc(N4CCC(CN5C6CCC5CN(c5ccc7c(c5)C(=O)N(N5CCC(=O)NC5=O)C7=O)C6)CC4)cn3)nc2n1C1CCCC1 [GT-05812]"
  System: "Human lung cancer cell line (H292)"
  Readout: "inhibition at 0.5 µM"
  Experimental value: "30 to 35%"
